ASSAY: NCI Yeast Anticancer Drug Screen. Data for the rad50EPP+ strain (AID 151);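 note: 0% = growth of vehicle-treated control cultures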
RUN CONDITIONS: S. cerevisiae rad50 mutant strain, at 33.0 µM, hits give high values
Compounds without any hit were thinned out: in the full panel of roughly 79,000, 15% have a hit.
Quick rule: growth inhibition of at least 30% means t, below that means f.

[
  {
    "CHEMICAL STRUCTURE": "N#C/C(=C\\c1ccccc1)c1ccccc1F",
    "ASSIGNED CLASS": "f"
  },
  {
    "CHEMICAL STRUCTURE": "Cc1c2cc[n+](CCN3CCCCC3)cc2c(C)c2c1[nH]c1ccc(O)cc12",
    "ASSIGNED CLASS": "t"
  },
  {
    "CHEMICAL STRUCTURE": "CN(C)CCNc1cccc2sc3ccc(O)cc3c(=O)c12",
    "ASSIGNED CLASS": "f"
  },
  {
    "CHEMICAL STRUCTURE": "Cc1onc(-c2ccccc2Cl)c1C1=N/C(=C/c2cc(Cl)cc(Cl)c2O)C(=O)O1",
    "ASSIGNED CLASS": "f"
  },
  {
    "CHEMICAL STRUCTURE": "O=C(O)c1ccccc1.[Ag]",
    "ASSIGNED CLASS": "t"
  }
]

Entry CCc1[nH]nc(C(N)=O)c1N=NN(C)C : is its growth inhibition no less than 30%?
t

Is the recorded value of growth inhibition equal to or greater than 30% for this compound? Oc1ccc(Br)cc1C=NC1CCCCC1
t

====

ASSAY: NCI Yeast Anticancer Drug Screen. Data for the wt2 strain (AID 169);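 note: 0% = growth of vehicle-treated yeast cultures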
RUN CONDITIONS: S. cerevisiae wt2 strain growth inhibition; at 11.0 µM; hits give high values
This is part of a sample that, as a whole, favours compounds with a hit. Of some 79,000 tested, about 15% had one in any assay.
# growth inhibition listing for each entry below
Please give a number only; it is taken to be in %.

Solved cases below.
[
  {
    "COMPOUND": "C=C(C)[C@@H]1CCc2c(O)c(O)c(=O)cc(C)c2C1",
    "growth inhibition, %": -27
  },
  {
    "COMPOUND": "O=C(O)c1cccc2cccc(-c3c4ccc(=O)cc-4oc4cc(O)ccc34)c12",
    "growth inhibition, %": 48
  },
  {
    "COMPOUND": "Nc1ccc2c(c1)sc1ccccc12",
    "growth inhibition, %": -4
  },
  {
    "COMPOUND": "Cc1cc(O)c2c(c1O)C(=O)C13C(=C2O)C(=O)C2C(O)C1C1C(O)C3C(=O)C3=C(O)c4c(O)cc(C)c(O)c4C(=O)C321 (stereo unspecified)",
    "growth inhibition, %": 52
  },
  {
    "COMPOUND": "CC1=CCC(C(C)(C)c2ccc(O)cc2)CC1 (stereo unspecified)",
    "growth inhibition, %": -44
  },
  {
    "COMPOUND": "NC(N)=N/N=C/c1cc(Cl)cc(Cl)c1O",
    "growth inhibition, %": -30
  },
  {
    "COMPOUND": "CC1(C)C(C=O)=CCC1CC(N)=O (stereo unspecified)",
    "growth inhibition, %": 4
  },
  {
    "COMPOUND": "CN(C)c1ccc(N=Nc2ccccn2)cc1",
    "growth inhibition, %": 3
  },
  {
    "COMPOUND": "N#C/C(=C1C=C(Br)/C(=N\\O)C=C\\1Cl)c1cccc2ccccc12",
    "growth inhibition, %": 87
  },
  {
    "COMPOUND": "COc1cc(N(C)C)ccc1/C=C\\c1ccnc2ccccc12",
    "growth inhibition, %": -4
  }
]

Next item in the queue.
The compound listed as O=C(/C=C/c1cccc2ccccc12)c1ccc(Cl)cc1 has a reported growth inhibition of -28
